Source listed as ChEMBL document CHEMBL3232890.

Items are presented alongside their recorded pIC50.
testProtocol: Inhibition of electric eel AChE type VI-S using acetylthiocholine iodide as substrate preincubated with enzyme for 10 mins prior to substrate challenge for 15 mins by Ellman's method
Design: species or system Electrophorus electricus
pIC50 field: float, defined as -log10 of concentration (mol/L).

Before answering, review these 3 worked examples.
| itemSmiles | pIC50 |
| --- | --- |
| COc1ccc2[nH]c(-c3ccc(-n4nc5c(c4C)N(C)S(=O)(=O)c4ccccc4-5)cc3)nc2c1 | 5.94 |
| CN1c2c(nn(-c3ccc(-c4nc5cc([N+](=O)[O-])ccc5[nH]4)cc3)c2-c2ccccc2)-c2ccccc2S1(=O)=O | 5.10 |
| CN1c2c(nn(-c3ccc(-c4nc5cc(Br)ccc5[nH]4)cc3)c2-c2ccccc2)-c2ccccc2S1(=O)=O | 5.16 |

Switching to the query record.
Cc1c2c(nn1-c1ccc(-c3nc4cc([N+](=O)[O-])ccc4[nH]3)cc1)-c1ccccc1S(=O)(=O)N2C has a reported pIC50 of 6.31

* * *

targetSystem: Cholinesterase (Equus caballus, UniProt P81908)
Sequence (P81908 whole entry): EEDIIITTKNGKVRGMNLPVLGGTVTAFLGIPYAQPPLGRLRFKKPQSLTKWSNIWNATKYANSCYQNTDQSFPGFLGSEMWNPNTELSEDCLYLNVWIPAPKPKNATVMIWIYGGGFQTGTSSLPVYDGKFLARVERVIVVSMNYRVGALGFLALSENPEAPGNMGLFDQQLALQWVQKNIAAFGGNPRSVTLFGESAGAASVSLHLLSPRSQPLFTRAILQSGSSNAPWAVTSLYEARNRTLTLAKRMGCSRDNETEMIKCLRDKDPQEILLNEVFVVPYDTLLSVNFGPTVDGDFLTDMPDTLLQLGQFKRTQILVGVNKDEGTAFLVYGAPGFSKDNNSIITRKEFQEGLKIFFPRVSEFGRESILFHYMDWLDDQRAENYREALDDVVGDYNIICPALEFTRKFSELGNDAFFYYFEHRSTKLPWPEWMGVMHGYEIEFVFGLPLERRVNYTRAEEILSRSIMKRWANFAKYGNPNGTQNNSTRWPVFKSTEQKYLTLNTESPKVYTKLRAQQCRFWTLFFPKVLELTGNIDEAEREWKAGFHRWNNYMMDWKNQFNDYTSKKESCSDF
testProtocol: Inhibition of BuChE in equine serum using butyrylthiocholine chloride as substrate preincubated with enzyme for 10 mins prior to substrate challenge for 15 mins by Ellman's method
attributeMeasured: log10 of IC50 (log10 of the value in nM)
// units: nM (pre-log); metric: IC50; scale: log10

Before answering, review these 5 worked examples.
| itemSmiles | log10 of IC50 |
| --- | --- |
| CN1c2c(nn(-c3ccc(-c4nc5ccccc5[nH]4)cc3)c2-c2ccccc2)-c2ccccc2S1(=O)=O | 1.63 |
| CN1c2c(nn(-c3ccc(-c4nc5cc(Br)ccc5[nH]4)cc3)c2-c2ccccc2)-c2ccccc2S1(=O)=O | 3.51 |
| Cc1c2c(nn1-c1ccc(-c3nc4cc(Br)ccc4[nH]3)cc1)-c1ccccc1S(=O)(=O)N2C | 1.69 |
| CN1c2c(nn(-c3ccc(-c4nc5cncnc5[nH]4)cc3)c2-c2ccccc2)-c2ccccc2S1(=O)=O | 3.12 |
| COc1ccc2[nH]c(-c3ccc(-n4nc5c(c4C)N(C)S(=O)(=O)c4ccccc4-5)cc3)nc2c1 | 3.84 |

Switching to the query record.
Cc1c2c(nn1-c1ccc(-c3nc4ccccc4[nH]3)cc1)-c1ccccc1S(=O)(=O)N2C has a reported log10 of IC50 of 1.63

* * *

Items are presented alongside their recorded IC50.
testProtocol: Inhibition of electric eel AChE type VI-S using acetylthiocholine iodide as substrate preincubated with enzyme for 10 mins prior to substrate challenge for 15 mins by Ellman's method
Design: species or system Electrophorus electricus
Counter-ions that a name gives are not always drawn.
Entry rule: numbers only, all in nM.

Before answering, review these 3 worked examples.
| molecule | displayUnit | endpointValue |
| --- | --- | --- |
| Cc1ccc2[nH]c(-c3ccc(-n4nc5c(c4-c4ccccc4)N(C)S(=O)(=O)c4ccccc4-5)cc3)nc2c1 | nM | 122 |
| Cc1c2c(nn1-c1ccc(-c3nc4cc(C(=O)O)ccc4[nH]3)cc1)-c1ccccc1S(=O)(=O)N2C | nM | 1130 |
| Cc1c2c(nn1-c1ccc(-c3nc4cc(Br)ccc4[nH]3)cc1)-c1ccccc1S(=O)(=O)N2C | nM | 541 |

Switching to the query record.
COc1cc2c(cc1OC)C(=O)C(CC1CCN(Cc3ccccc3)CC1)C2 (centres undefined) [DONEPEZIL HYDROCHLORIDE] has a reported IC50 of 32
